// Post-emergence effect, Effect %, LOLRI lookup, one value per entry
# System: various unwanted plants
# assay.details: Post-emergence effect against various unwanted plants (PO): comparative test of I-01 with compounds from WO2020/245044 (Tables 41a, 41b) and summary statements
# Assay type: in vivo
# test.settings: LOLRI, 80 g/ha, comparative test
Hi! Could you send only the number? It should be in %, unit omitted.

# annotated cases, reported Post-emergence effect, Effect %, LOLRI shown
[
  {
    "compound": "CCOC(=O)C(F)Oc1nn(-c2ccccc2F)c(-c2ccc(F)nc2)c1Br (stereo not shown)",
    "study.system": "various unwanted plants",
    "reading.unit": "%",
    "Post-emergence effect, Effect %, LOLRI": 10
  },
  {
    "compound": "CCOC(=O)COc1nn(-c2ccccc2F)c(-c2ccc(F)nc2)c1Br",
    "study.system": "various unwanted plants",
    "reading.unit": "%",
    "Post-emergence effect, Effect %, LOLRI": 30
  },
  {
    "compound": "CCOC(=O)C(OCC)Oc1nn(-c2ccccc2F)c(-c2ccc(F)nc2)c1Br (racemic)",
    "study.system": "various unwanted plants",
    "reading.unit": "%",
    "Post-emergence effect, Effect %, LOLRI": 70
  }
]

Looking up CCCC(Oc1nn(-c2ccccc2F)c(-c2ccc(F)nc2)c1Br)C(=O)OCC (stereo not shown) , I see its Post-emergence effect, Effect %, LOLRI listed as 0
